Experiment: protein stability index of a GFP-peptide fusion (GPS, HEK-293T) (PSI 1-6); higher = more stable;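 further: 24-mer peptide tiles fused after GFP, lentivirally expressed, FACS-sorted into six equal bins by GFP/DsRed ratio, decoded by Illumina sequencing, PSI is the read-weighted mean bin number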
Conditions: treatment: MLN4924 1 uM, 8 h; c terminus: a fixed tail appended
Listed next: entries and their corresponding protein stability index.
QUANTITY_NAME: protein stability index

BIOPOLYMER_SEQUENCE	QUANTITY_NAME	REPORTED_MEASUREMENT
RLEELTNRLASLQQENKVLKIELE [CCDC6]	protein stability index	3.78
KKSSRNIFSIVFVFFVCFVPYHIA [P2RY14]	protein stability index	3.53
RAPSRRHGVRAKVQPQARKKEMEM [CPN1]	protein stability index	4.64
EPDAADGPYDPNSVRISFAKGWGP [SMAD6]	protein stability index	4.19
SWVSELLWSLFVPFTVYQVRWLRP [AUP1]	protein stability index	2.81
QVLFDKVCEHLNLLEKDYFGLTYR [EPB41L3]	protein stability index	2.55
GDEISIKKKNTNKQEMGTYLRFIV [ZMYND11]	protein stability index	2.12
EIIRKQVSATKAEAEKDGVKVPTT [UBE2R2]	protein stability index	4.7
RQDPRPHGPQLPTGIEGNWGRLLE [ZBED2]	protein stability index	3.54
RQIVSGLKYLHEQEILHRDLKLGN [PLK2]	protein stability index	2.7
QWIEVDARRLTRFTGVITQGRNSL [CPXM2]	protein stability index	2.52
LGSPYGQPPRFPVPHNGSSEATLP [PDLIM4]	protein stability index	4.6
RAYQYTTLTSVQLLDCFGIPVLMA [SLC35F2]	protein stability index	2.66

====

Experiment: protein stability index of a GFP-peptide fusion (GPS, HEK-293T) (PSI 1-6); higher = more stable
Settings: treatment: MLN4924 1 uM, 8 h; c terminus: a fixed tail appended
# key: entry, value: protein stability index

BIOPOLYMER_SEQUENCE	protein stability index
LKSKAEAEALYQTKFQELQLAAGR [KRT71]	3.85
MSSASGLRRGHPAGGEENMTETDA [CASP6]	5.39
AAVKAAREAFPSWSSRSPQERSRV [ALDH8A1]	3.88
DPIVRPLWWIAPGDETAHRIDSQF [MYORG]	3.24
RQRCMPEEDLQSQSETQGLEGAQA [MAGEA10]	5.44
GLRQRASNKVQDSAPVETPRGKPP [HMOX1]	4.83
FREDGAYEFNPDFLEEAHEWNQKR [N4BP2L1]	4.53
CWNTSYCSIKCQQEHWHAEHKRTC [ZMYND11]	2.32
ALRAAEVWMDDFKSHVYMAWNIPM [GALNT9]	2.24
LSLLELLELLLDASALTLVLGGRR [SCNN1D]	2.32
GRAVDQDKVLRFAQQIRLHHFNSS [MYORG]	2.75
EEMWTFRGKIHAFRGQILGFWEEE [CCDC70]	2.35
FKCRNKTSGQVVAVKKFVESEDDP [CDKL4]	4.94
SLRKSNTLCDVTLRVEQKDFPAHR [KLHL12]	3.91
IQVVLNGMESYQEVTVQRNCCLTL [ZER1]	3.01
VVEVTKGILEHVDSASPVEDTSND [M1AP]	5.47
NTKEKIAFFASHQCSNRIGSMKIK [FBXO34]	2.72
QFISRFLEGQSGVTIKHVACGDFF [NEK8]	2.39
FQEQVEKLKALHVDSAEYSCLKAI [NR2F2]	3.74
EAAPRQCIELYFDEKYSIEPSWEC [NETO1]	2.73
ELDEPQHEMVAHRHRQEVLCKEMV [ZSCAN9]	4.76
WFGASVLSLLELLELLLDASALTL [SCNN1D]	2.15
TFTASFSGKVFPFFAVWKKGSCLT [TRIM15]	2.34
PPTSPEPPRSSPRQTPAPGPAREK [CEBPD]	5.62
IETSALDSTNVEAAFQTILTEIYR [RAB11A]	2.44
PSVMDPGAFETVLASAYTGRLSMA [ZBTB22]	2.3
CIVSPDRPGVQDAALIEAIQDRLS [VDR]	3.65
